Where do the numbers come from? From patent US20230192631A1.

- subject-of-test: human cGAS (residues 161-522) (Homo sapiens)
- Construct: Recombinantly expressed purified human cGAS (residues 161-522) was used at 25 nM
- Sequence (Q8N884 161-522): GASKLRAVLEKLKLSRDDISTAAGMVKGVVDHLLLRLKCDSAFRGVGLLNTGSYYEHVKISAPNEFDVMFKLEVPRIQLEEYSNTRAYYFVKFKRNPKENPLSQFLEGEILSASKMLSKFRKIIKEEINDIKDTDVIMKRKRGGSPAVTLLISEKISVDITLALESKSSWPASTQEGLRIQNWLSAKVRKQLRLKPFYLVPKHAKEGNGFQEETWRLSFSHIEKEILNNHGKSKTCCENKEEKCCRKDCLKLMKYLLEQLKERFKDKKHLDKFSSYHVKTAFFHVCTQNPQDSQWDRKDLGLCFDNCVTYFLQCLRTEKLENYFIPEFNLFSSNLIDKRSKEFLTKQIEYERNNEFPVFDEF
- procedure-details: Malachite Green assay to measure cGAS activity
- stated-conditions: coupled enzymatic assay, phosphate detection by Malachite Green; 25 nM cGAS, 80 μM ATP, 80 μM GTP, 100 nM ISD, 4 hour at RT
- Protocol: Compounds were tested for cGAS inhibition in a coupled enzymatic assay based on Phosphate detection by Malachite Green. Final assay conditions were 20 mM TRIS pH 7.5 (Applichem), 5 mM MgCl2 (Sigma) and 0.01% BSA (Sigma) supplemented with 80 μM ATP (Sigma), 80 μM GTP (Sigma) and 100 nM Interferon Stimulating DNA (ISD) (Microsynth). […] Table 1 provides IC50 values (μM) for cGAS inhibition obtained for particular examples of the present invention as measured by the above-described assay.
readout-label: IC50 (µM)

Take a look at these entries with their results.
Cc1ccc(-c2ccc(OCCN3CCS(=O)(=O)CC3)c(C(=O)O)c2)c(Cl)c1: 2.67
Cc1ccc(-c2ccc(OCc3ccccc3)c(C(=O)O)c2)c(Cl)c1: 4.21
Cc1ccc(-c2ccc(OCCn3ccnc3)c(C(=O)O)c2)c(Cl)c1: 2.8
Cc1ccc(-c2ccc(NC(=O)Cc3cnc(C)[nH]c3=O)c(C(=O)O)c2)c(Cl)c1: 2.09

1: Cc1ccc(-c2ccc(NC(=O)CN3CCOCC3)c(C(=O)O)c2)c(Cl)c1
2: Cc1ccc(-c2ccc(NC(=O)Cc3ccccc3)c(C(=O)O)c2)c(Cl)c1
3: Cc1ccc(-c2ccc(NC(=O)CCN3CCOCC3)c(C(=O)O)c2)c(Cl)c1
4: Cc1ccc(-c2ccc(NC(=O)Cn3cncn3)c(C(=O)O)c2)c(Cl)c1
Parameters: sort_field (IC50), sort_dir (desc). Please reply with the labels ordered as requested. Many thanks.
3, 2, 4, 1
